Numbers sourced from PubChem BioAssay AID1159580.

ASSAY: chemical genetic growth profiling, strain panel (AID 1159580);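 note: tested at 20 µM; growth read once vehicle control cultures reached saturation at 30 °C; 1 = growth at the plate median or of vehicle wells; lower values mean less growth of the strain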
MEASUREMENT_CONTEXT: S. cerevisiae deletion strains, growth OD, locus YEL061C, strain CIN8 (second series), hits give low values
About 2,000 (36%) of roughly 5,500 compounds were called active. Not shown: some 18% with an inconclusive outcome. The list shows a part of the results.
RECORDED_METRIC: normalized growth
Just the number, please, no unit attached.

// O=C(O)CN1C(=O)c2cccc3cccc(c23)C1=O : normalized growth value = 0.974

Entry CCOC(=O)c1ccc(O)cc1 , normalized growth reported as 1.01

Looking up CC(C)C(=O)Nc1ccc([N+](=O)[O-])c(C(F)(F)F)c1 , I found its normalized growth recorded as 1.01

Sample C=C1CCC2C(CC2(C)C)C(=C)CC/C1=N\O (stereo not drawn) ; normalized growth observed: 1.01

Per the record, CC1(C)NC(=O)N(c2ccc([N+](=O)[O-])c(C(F)(F)F)c2)C1=O has normalized growth of 0.989

The compound CO[C@@]1(NC(=O)CSCC#N)C(=O)N2C(C(=O)O)=C(CSc3nnnn3C)CSC21 (stereo partly drawn) showed normalized growth equal to 1.01

Value of normalized growth reported for the compound CCN(CC)CCOC(=O)c1ccc(N)cc1 is 0.978

Record O=C1NC(=O)C(=O)C(=O)N1 , field normalized growth: 0.983

Briefly, normalized growth measured for CCCCC(=O)Oc1ccccc1C(=O)O : 0.982

Looking up CC(=O)Oc1c(C)cccc1C(=O)O , I found its normalized growth recorded as 1.01

Data point: Cc1cccc(C)c1NC1=NCCCS1 ; normalized growth = 1.01

# normalized growth (compound: COC(=O)[C@@H]1OC(=O)[C@H]2O[C@@]23[C@@]1(C)CCC1[C@@]2(C)CCC(=O)C(C)(C)C2C[C@@H](OC(C)=O)[C@]13C (stereo partly drawn) ) is 0.975

O=S1OCC2C(CO1)C1(Cl)C(Cl)=C(Cl)C2(Cl)C1(Cl)Cl (stereo not drawn) yielded normalized growth of 0.983

Notebook: COC(=O)C1=CCCN(C)C1 , normalized growth read as 0.988

Entry C=CCSCC1Nc2cc(Cl)c(S(N)(=O)=O)cc2S(=O)(=O)N1 (stereo not drawn) — recorded normalized growth = 0.997

What the record says about Nc1nc2ncc(=O)[nH]c2c(=O)[nH]1 : normalized growth is 0.976

Entry under test: C[C@H]1CC[C@@H](C(C)(C)O)CC2=C1CC[C@@H]2C . Its normalized growth was 1

Looking up NC(N)=NS(=O)(=O)c1ccc(N)cc1 , I see its normalized growth listed as 0.974
